Experiment: Viability qHTS for spleen associated tyrosine kinase inhibitor (SYKi) drug resistant MV4-11 cells (AID 1963824); further: nearly all actives have a fitted effect of over 35% in size
Conditions: SYKi-resistant MV4-11 viability, CellTiter-Glo, 72 h; series mostly up to 45 µM
Inconclusive results are not listed. Calls of active or inactive are those of the source. The call rests on the fitted dose curve; in most records, active means well fitted cell-killing curve with a large enough effect; inconclusive means small, poorly fitted or top-dose-only effect, or effect the other way; inactive means no such curve, though single readings can be large or run the other way.
Write down the outcome that applies. Available outcomes: active, inactive

CCc1cc2cc(OC)c(OC)cc2c(Cc2ccccc2)n1 : active
C=C1C(=O)OC2/C=C(\C)CC/C=C(\C)CC(OC(C)=O)C12 (stereo not given) : active
CN(C)CC[C@@H](c1ccc(Cl)cc1)c1ccccn1 : inactive
CN(CCOc1ccc(NS(C)(=O)=O)cc1)CCc1ccc(NS(C)(=O)=O)cc1 : inactive
CCOC(=O)[C@@H](N)CCC(=O)N[C@@H](CSCc1ccccc1)C(=O)N[C@@H](C(=O)OCC)c1ccccc1 : active

INPUT: Record lookup: outcome of this test for C[C@@H]1CC[C@]2(C(=O)O)CC[C@]3(C)C(=CCC4[C@@]5(C)C[C@@H](O)[C@@H](O)C(C)(C)C5CC[C@]43C)C2[C@]1(C)O (stereo not given in full) ?
OUTPUT: active

INPUT: Record lookup: outcome of this test for C/C=C1\[C@H]2C=C(C)C[C@]1(N)c1ccc(=O)[nH]c1C2 ?
OUTPUT: inactive

INPUT: Record lookup: outcome of this test for O=C1c2c(O)cc(O)cc2OC(c2ccc(O)c(O)c2)C1O (stereo not given) ?
OUTPUT: inactive

INPUT: Record lookup: outcome of this test for CN1CCC(c2c(O)cc(O)c3c(=O)cc(-c4ccccc4Cl)oc23)C1CO (stereo not given) ?
OUTPUT: active

INPUT: Record lookup: outcome of this test for COc1ccc(Cl)cc1C(=O)NCCc1ccc(S(=O)(=O)NC(=O)NC2CCCCC2)cc1 ?
OUTPUT: inactive

INPUT: Record lookup: outcome of this test for C[C@@H]1CCC[C@H](C)N1 ?
OUTPUT: inactive

INPUT: Record lookup: outcome of this test for CC(C)(O)CC[C@@H](O)[C@](C)(O)[C@H]1CC[C@@]2(O)C3=CC(=O)[C@@H]4C[C@@H](O)[C@@H](O)C[C@]4(C)[C@H]3CC[C@]12C ?
OUTPUT: inactive

INPUT: Record lookup: outcome of this test for CC1CC(O)CC(C)(C)C1(O)CCO (stereo not given) ?
OUTPUT: inactive

INPUT: Record lookup: outcome of this test for COc1ccc(CNC(=O)Nc2ncc([N+](=O)[O-])s2)cc1 ?
OUTPUT: active

INPUT: Record lookup: outcome of this test for C=C[C@H]1[C@H](O[C@@H]2O[C@H](CO)[C@@H](O)[C@H](O)[C@H]2O)OC=C(C(=O)OC)[C@H]1C[C@@H]1N[C@H](C(=O)O)Cc2c1[nH]c1ccccc21 ?
OUTPUT: inactive

* * *

Assay: Viability qHTS for spleen associated tyrosine kinase inhibitor (SYKi) drug resistant MV4-11 cells (AID 1963824); further: nearly all actives have a fitted effect of over 35% in size
Details: SYKi-resistant MV4-11 viability, CellTiter-Glo, 72 h; series mostly up to 45 µM
Procedure: Department of Medicine, Hematology/Oncology University Hospital Frankfurt, Germany. Trials have shown promising clinical activity of the selective SYK inhibitor entospletinib in patients with high expressing HOXA9/MEIS1 acute leukemias. […] 7; Detection; Luminescence; ViewLux plate reader (PerkinElmer). […] 1. Quantitative high-throughput screening (qHTS) of small molecule compounds was conducted on drug resistant SYKi MV4-11 cell line. […] 7. Luminescence was measured on a ViewLux plate reader (PerkinElmer).
Inconclusive results are not listed. The source made the active and inactive calls. The call rests on the fitted dose curve; in most records, active means well fitted cell-killing curve with a large enough effect; inconclusive means small, poorly fitted or top-dose-only effect, or effect the other way; inactive means no such curve, though single readings can be large or run the other way.
Write down the outcome that applies. Available outcomes: active, inactive

Reference set (4 entries):
CC1CC2OCC3(O)CCC(O)C(C14CC(c1ccoc1)OC4=O)C23CO (configuration not stated) : inactive
Cn1c(=O)c2c(ncn2C)n(C)c1=O : inactive
Cn1sc(=O)n(Cc2ccccc2)c1=O : active
C[C@]12CC[C@H](O)CC1=CCC1C2CC[C@]2(C)C(n3cnc4ccccc43)=CCC12 (some centres not stated) : active

Switching to the query record.
INPUT: Record lookup: outcome of this test for Cc1cc(Nc2ncc3cc(-c4c(Cl)cccc4Cl)c(=O)n(C)c3n2)ccc1F ?
OUTPUT: active

* * *

Assay: Quantitative highthroughput screen to assess conditional lethalithy of P12 Ichikawa cells grown in RPMI1640 with untreated serum (RPMI+s) (AID 1963881); further: nearly all actives have a fitted effect of over 35% in size; further: potency means the concentration at half of the fitted maximal effect;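 on viability: 100% = DMSO wells and 0% = empty wells without cells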
Details: ATP luminescence, 48 h; viability; series mostly up to 45.8 µM
Results filed as inconclusive are left out. Active and inactive are the calls of the source. Calls come from the whole dose curve; as a rule, active = well fitted cell-killing curve with a large enough effect; inconclusive = small, poorly fitted or top-dose-only effect; inactive = flat fitted curve, though single readings scatter.
endpoint: Potency

CC(C)N(CC[C@H](c1ccccc1)c1cc(CO)ccc1O)C(C)C : inactive
CC(=O)OCC(CCn1cnc2cnc(N)nc21)COC(C)=O : inactive
COc1ccc(F)c(F)c1C(=O)c1cnc(NC2CCN(S(C)(=O)=O)CC2)nc1N : 11.8 µM (active)
CC(=O)Nc1ccc([C@H](C)C(=O)Nc2ncc(C(C)C)s2)cc1 : 11.8 µM (active)

* * *

Experiment: Quantitative highthroughput screen to assess conditional lethalithy of P12 Ichikawa cells grown in RPMI1640 with untreated serum (RPMI+s) (AID 1963881); further: nearly all actives have a fitted effect of over 35% in size;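 on viability: 100% = DMSO wells and 0% = empty wells without cells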
Conditions: ATP luminescence, 48 h; viability; series mostly up to 45.8 µM
Records with an inconclusive call do not appear. Active and inactive are the calls of the source. The call rests on the fitted dose curve; in most records, active means well fitted cell-killing curve with a large enough effect; inconclusive means small, poorly fitted or top-dose-only effect; inactive means flat fitted curve, though single readings scatter.
Write down the outcome that applies. Available outcomes: class 1 (active), class 0 (inactive)

Reference set (3 entries):
Cn1cc(C=CC(=O)c2cccc(F)c2)cc1C=CC(=O)NO : class 0
COc1cc(O)c2c(c1)C1OC1C[C@H](O)[C@H](O)C(=O)C=CC[C@H](C)OC2=O (stereo partly drawn) : class 1
Cn1c(N2CCCCS2(=O)=O)nc(C(=O)NCc2ccc(F)cc2)c(O)c1=O : class 0

INPUT: Record lookup: outcome of this test for NCCc1ccc(O)c(O)c1 ?
OUTPUT: class 0

INPUT: Record lookup: outcome of this test for CCN(CC)CCOc1ccc(Nc2ncc3cc(-c4c(Cl)cccc4Cl)c(=O)n(C)c3n2)cc1 ?
OUTPUT: class 1

INPUT: Record lookup: outcome of this test for Cc1cc(=O)oc2cc(O)ccc12 ?
OUTPUT: class 0

INPUT: Record lookup: outcome of this test for COc1cc2c(Nc3ccc(Cl)c(Cl)c3F)ncnc2cc1OCC1C[C@@H]2CN(C)C[C@H]2C1 ?
OUTPUT: class 1

INPUT: Record lookup: outcome of this test for O=C(O)c1nc(=O)[nH]c(=O)[nH]1 ?
OUTPUT: class 0

* * *

Assay: Quantitative highthroughput screen to assess conditional lethalithy of NOMO1 cells grown in RPMI1640 with untreated serum (RPMI+s) (AID 1963876); further: nearly all actives have a fitted effect of over 35% in size;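 on viability: 100% = DMSO wells and 0% = empty wells without cells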
Conditions: NOMO1 AML cells in RPMI+serum, CellTiter-Glo viability, 48 h; series mostly up to 45.8 µM
Records with an inconclusive call do not appear. Activity calls are given as the source filed them. Calls come from the whole dose curve; as a rule, active = well fitted cell-killing curve with a large enough effect; inconclusive = small, poorly fitted or top-dose-only effect; inactive = flat fitted curve, though single readings scatter.
Write down the outcome that applies. Available outcomes: active, inactive

Reference set (6 entries):
CC(=O)SC[C@@H](C)C(=O)N1CCC[C@H]1C(=O)N[C@@H](Cc1ccccc1)C(=O)O : inactive
COCCNCCCn1c(C(=O)CF)c(-c2ccc(C)cc2)c2c(N)ncnc21 : inactive
CCOC(=O)N1CCN([N+]([O-])=NOc2cc(ON=[N+]([O-])N3CCN(C(=O)OCC)CC3)c([N+](=O)[O-])cc2[N+](=O)[O-])CC1 : inactive
Cc1cc(C(=O)N2CCN(c3cccc(Cl)c3)CC2)n(-c2ccccc2)n1 : active
Cc1ccc(NC(=O)C2(c3ccc4c(c3)OC(F)(F)O4)CC2)nc1-c1cccc(C(=O)O)c1 : active
O=C1NC(=O)C(=Cc2ccc3c(c2)OC(F)(F)O3)S1 : inactive

INPUT: Record lookup: outcome of this test for CCc1cc(C(C)=NOCc2ccc(C3CCCCC3)c(C(F)(F)F)c2)ccc1CN1CC(C(=O)O)C1 ?
OUTPUT: active

INPUT: Record lookup: outcome of this test for COCCCN1CCC(NC(=O)c2cc(Cl)c(N)c3c2OCC3)CC1 ?
OUTPUT: inactive

INPUT: Record lookup: outcome of this test for OC(CN1CCC(Cc2ccc(F)cc2)CC1)c1ccc(Cl)cc1 (stereo not given) ?
OUTPUT: inactive

INPUT: Record lookup: outcome of this test for O=C1CSC(=O)N1C(CCc1ccncc1)COc1ccc(-c2cccc([N+](=O)[O-])c2)cc1 (stereo not given) ?
OUTPUT: inactive

INPUT: Record lookup: outcome of this test for COC(=O)Nc1nc2ccc(C(=O)c3ccc(F)cc3)cc2[nH]1 ?
OUTPUT: inactive

* * *

Assay: Viability qHTS for spleen associated tyrosine kinase inhibitor (SYKi) naive MV4-11 cells (AID 1963823); further: nearly all actives have a fitted effect of over 40% in size
Settings: MV4-11 AML viability, CellTiter-Glo luminescence, 72 h; series mostly up to 45 µM
Results filed as inconclusive are left out. The source made the active and inactive calls. Calls follow the shape of the dose curve; as a rule, active = well fitted cell-killing curve with a large enough effect; inconclusive = small, poorly fitted or top-dose-only effect, or effect the other way; inactive = no such curve, though single readings can be large or run the other way.
Write down the outcome that applies. Available outcomes: true = active, false = inactive

Reference set (5 entries):
CC(C)(O)/C=C1/C(=O)C(C)(C)C(=O)C(C)(C)C1(O)O[C@@H]1O[C@H](COC(=O)c2cc(O)c(O)c(O)c2)[C@@H](O)[C@H](O)[C@H]1O (some centres not stated) : false
CC1(C)CC[C@]2(C(=O)O[C@@H]3O[C@H](CO)[C@@H](O)[C@H](O)[C@H]3O)CC[C@]3(C)C(=CCC4[C@@]5(C)C[C@@H](O)[C@H](O)C(CO)(CO)C5CC[C@]43C)C2[C@@H]1O (some centres not stated) : false
CCOC(=O)c1cc(C#N)c(N2CCC(C(=O)NS(=O)(=O)Cc3ccccc3)CC2)nc1C : false
CCN1CCN(c2ccc(Nc3ccc(-c4ccc(C(N)=O)cc4)n4ncnc34)cc2)CC1 : true
C[C@@H]1C[C@H](O)/C=C/[C@H](O)[C@@H](O)CC(=O)O1 : false

INPUT: Record lookup: outcome of this test for C[C@@H]1O[C@@H](OC[C@H]2O[C@@H](OCCc3ccccc3)[C@H](O)[C@@H](O)[C@@H]2O)[C@H](O)[C@H](O)[C@H]1O ?
OUTPUT: false

INPUT: Record lookup: outcome of this test for COc1ccc2c(Oc3ccc(NC(=O)c4c(C)n(CC(C)(C)O)n(-c5ccccc5)c4=O)cc3F)ccnc2c1 ?
OUTPUT: true
